Values compiled from paper PMC10005301.

Details: pH 8
Method: The retention behavior of the 42 basic compounds (Table 1) were investigated at different ratios of methanol (φ = 0.7–0.1, the interval was 0.1 or 0.05 based on the retention of the investigated solutes). […] The logD values of the model compounds and verification compounds calculated using Equation (S3) based on the logP and pH values are also listed in Table 1. At each pH, the retention time (tR) of every analyte was determined for at least four different volume fractions (φ) of methanol. […]

{"SUBSTANCE SMILES": "Nc1ccc(Br)cc1", "logDpH 8.0": 1.74}
{"SUBSTANCE SMILES": "CCc1ccccc1N", "logDpH 8.0": 1.67}
{"SUBSTANCE SMILES": "Cc1ccc(N)c(C)c1", "logDpH 8.0": 1.68}
{"SUBSTANCE SMILES": "c1ccc(-c2ccncc2)cc1", "logDpH 8.0": 2.59}
{"SUBSTANCE SMILES": "Cc1ccccc1N", "logDpH 8.0": 1.40}
{"SUBSTANCE SMILES": "CCOc1ccc(N)cc1", "logDpH 8.0": 1.24}
{"SUBSTANCE SMILES": "Cc1ccccn1", "logDpH 8.0": 1.09}

###

Test: physchem
Settings: pH 8
QUANTITY: chromatographic logD

{"MOLECULE": "Nc1ccccc1N [1,2-diaminobenzene]", "QUANTITY": "chromatographic logD", "OBSERVED RESULT": 0.38}
{"MOLECULE": "Nc1c(Cl)cc([N+](=O)[O-])cc1[N+](=O)[O-] [2-Chloro-4,6-dinitroaniline]", "QUANTITY": "chromatographic logD", "OBSERVED RESULT": 2.07}
{"MOLECULE": "Nc1ccc([N+](=O)[O-])cc1Cl [2-Chloro-4-nitroaniline]", "QUANTITY": "chromatographic logD", "OBSERVED RESULT": 1.96}
{"MOLECULE": "Nc1cccc(N)c1 [1,3-diaminobenzene]", "QUANTITY": "chromatographic logD", "OBSERVED RESULT": -0.02}
{"MOLECULE": "Nc1ccc([N+](=O)[O-])cc1[N+](=O)[O-] [2,4-Dinitroaniline]", "QUANTITY": "chromatographic logD", "OBSERVED RESULT": 1.69}
{"MOLECULE": "CCc1ccccc1N [2-Ethylaniline]", "QUANTITY": "chromatographic logD", "OBSERVED RESULT": 1.77}
{"MOLECULE": "Cc1cc([N+](=O)[O-])ccc1N [2-Methyl-4-nitroaniline]", "QUANTITY": "chromatographic logD", "OBSERVED RESULT": 1.63}

###

Conditions: pH 7
Method: The retention behavior of the 42 basic compounds (Table 1) were investigated at different ratios of methanol (φ = 0.7–0.1, the interval was 0.1 or 0.05 based on the retention of the investigated solutes). […] The logD values of the model compounds and verification compounds calculated using Equation (S3) based on the logP and pH values are also listed in Table 1. At each pH, the retention time (tR) of every analyte was determined for at least four different volume fractions (φ) of methanol. […]
Hi! Just check whether logDpH 7.0 is below 1. Below gives satisfied, equal or above gives not satisfied.

{"MOLECULE": "Cc1ccccn1 [2-Picoline]", "DISCRETE LABEL": "not satisfied"}
{"MOLECULE": "c1ccc(-c2ccncc2)cc1 [4-Phenylpyridine]", "DISCRETE LABEL": "not satisfied"}
{"MOLECULE": "Nc1ccc(Br)cc1 [4-Bromoaniline]", "DISCRETE LABEL": "not satisfied"}
{"MOLECULE": "CCOc1ccc(N)cc1 [4-Ethoxyaniline]", "DISCRETE LABEL": "not satisfied"}
{"MOLECULE": "CCN(CC)c1ccccc1 [N, N-Diethylaniline]", "DISCRETE LABEL": "not satisfied"}
{"MOLECULE": "Cc1ccc(N)c(C)c1 [2,4-Dimethylaniline]", "DISCRETE LABEL": "not satisfied"}
{"MOLECULE": "COc1ccc(N)cc1 [4-Methoxyaniline]", "DISCRETE LABEL": "satisfied"}
{"MOLECULE": "Cc1ccc(N)cc1 [4-Methylaniline]", "DISCRETE LABEL": "not satisfied"}
{"MOLECULE": "Cc1ccncc1 [4-Methylpyridine]", "DISCRETE LABEL": "not satisfied"}
{"MOLECULE": "Nc1ccccc1 [Aniline]", "DISCRETE LABEL": "satisfied"}
{"MOLECULE": "c1ccc(CNCc2ccccc2)cc1 [Dibenzylamine]", "DISCRETE LABEL": "not satisfied"}
{"MOLECULE": "Cc1ccccc1N [2-Methylaniline]", "DISCRETE LABEL": "not satisfied"}
{"MOLECULE": "COc1ccccc1N [2-Methoxyaniline]", "DISCRETE LABEL": "satisfied"}
